Where do the numbers come from? From the supplement of paper PMC4862054.

# Test system: CAL-85-1
# METHOD_SUMMARY: normalised response (% of control), CellTiter-Glo; higher = more viable cells (100 = DMSO, 0 = benzethonium chloride kill control)
# CONDITION: incubation time: 72 h

{"columns": ["COMPOUND", "TARGET_DESC", "normalised response"],
 "data": [
  ["Cc1ccc(NC(=O)c2ccc(CN3CCN(C)CC3)cc2)cc1Nc1nccc(-c2cccnc2)n1 [Imatinib] (10000 nM)", "CAL-85-1", "85.7%"],
  ["NS(=O)(=O)OC[C@@H]1C[C@@H](n2ccc3c(N[C@H]4CCc5ccccc54)ncnc32)C[C@@H]1O [Pevonedistat] (10000 nM)", "CAL-85-1", "39.7%"],
  ["COc1ccc(-c2ccc3c(N4CCOC[C@@H]4C)nc(N4CCOC[C@@H]4C)nc3n2)cc1CO [AZD8055] (10000 nM)", "CAL-85-1", "27.6%"],
  ["Nc1ncnc2c1c(COc1cccc(Cl)c1)nn2C1CCOCC1 (10000 nM)", "CAL-85-1", "90.2%"]
]}

====

# Test system: BT-549
# METHOD_SUMMARY: normalised response (% of control), CellTiter-Glo; higher = more viable cells (100 = DMSO, 0 = benzethonium chloride kill control)
# CONDITION: incubation time: 72 h
ASSAY_METRIC: normalised response (%)

{"columns": ["MOLECULE", "TARGET_DESC", "VALUE_REPORTED"],
 "data": [
  ["CN(C)C[C@@H]1CCn2cc(c3ccccc32)C2=C(C(=O)NC2=O)c2cn(c3ccccc23)CCO1 [Ruboxistaurin] (10 nM)", "BT-549", 95.5],
  ["CN1CCN(CCOc2cc(OC3CCOCC3)c3c(Nc4c(Cl)ccc5c4OCO5)ncnc3c2)CC1 [Saracatinib] (1000 nM)", "BT-549", 89.9],
  ["O=C(O)CCCc1ccc(N(CCCl)CCCl)cc1 [Chlorambucil] (1 nM)", "BT-549", 102],
  ["COc1ccc(-c2ccc3c(N4CCOC[C@@H]4C)nc(N4CCOC[C@@H]4C)nc3n2)cc1CO [AZD8055] (1 nM)", "BT-549", 98.2],
  ["COc1ccccc1S(=O)(=O)Nc1ccc2c(c1)CN(C)C(=O)N2 [PFI-1] (1 nM)", "BT-549", 96.5],
  ["C/C(=C\\c1csc(C)n1)[C@@H]1C[C@@H]2O[C@]2(C)CCC[C@H](C)[C@H](O)[C@@H](C)C(=O)C(C)(C)[C@@H](O)CC(=O)O1 [Patupilone] (100 nM)", "BT-549", 16.3],
  ["CNNCc1ccc(C(=O)NC(C)C)cc1 [Procarbazine] (1 nM)", "BT-549", 111]
]}

====

A collection of compounds and their measured EC50, CellTiter-Glo
# Test system: CAL-51
# CONDITION: 72 h

{"columns": ["COMPOUND", "TARGET_DESC", "UNIT_SPEC", "EC50, CellTiter-Glo"],
 "data": [
  ["CC(C)c1c(C(=O)Nc2ccccc2)c(-c2ccccc2)c(-c2ccc(F)cc2)n1CC[C@@H](O)C[C@@H](O)CC(=O)O [Atorvastatin]", "CAL-51", "µM", 2.21],
  ["Cn1c(=O)n(-c2ccc(C(C)(C)C#N)cc2)c2c3cc(-c4cnc5ccccc5c4)ccc3ncc21 [Dactolisib]", "CAL-51", "µM", 0.0143],
  ["CN(C)CCN1C(=O)c2cccc3cc(N)cc(c23)C1=O [Amonafide]", "CAL-51", "µM", 5.57],
  ["NS(=O)(=O)OC[C@@H]1C[C@@H](n2ccc3c(N[C@H]4CCc5ccccc54)ncnc32)C[C@@H]1O [Pevonedistat]", "CAL-51", "µM", 0.0912],
  ["COc1ccc(-c2ccc3c(N4CCOC[C@@H]4C)nc(N4CCOC[C@@H]4C)nc3n2)cc1CO [AZD8055]", "CAL-51", "µM", 0.0454],
  ["CCCCCCCCc1ccc(CCC(N)(CO)CO)cc1 [Fingolimod]", "CAL-51", "µM", 2.04]
]}
